targetDesc: CD94/NKG2A (Homo sapiens, UniProt P26715+Q13241)
Sequence (P26715 94-233 limits assumed): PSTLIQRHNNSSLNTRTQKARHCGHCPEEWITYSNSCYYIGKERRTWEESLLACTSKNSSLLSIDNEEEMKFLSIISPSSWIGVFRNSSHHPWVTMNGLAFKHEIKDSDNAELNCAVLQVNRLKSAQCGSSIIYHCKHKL
Sequence (Q13241 32-179 limits assumed): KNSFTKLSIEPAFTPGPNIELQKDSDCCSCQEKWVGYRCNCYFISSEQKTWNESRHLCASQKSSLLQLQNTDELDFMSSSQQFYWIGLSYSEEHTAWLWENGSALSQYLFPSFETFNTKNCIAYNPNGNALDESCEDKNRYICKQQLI
assayProcedure: Steady-state surface plasmon resonance of peptide-HLA-E complex with CD94/NKG2A
Assay type: binding
conditionsUsed: steady-state SPR; CD94/NKG2A analyte concentration 0.200 μM
Where no end group is shown, it is not given here.
# label = MET if Binding of peptide-HLA-E complexes to CD94/NKG2A normalized to a theoretical Rmax >= 0.05 else NOT MET

// known answers, use as guide
{"sequenceChain": "TAPARTMFL [human13, TAPARTMFL]", "assignedClass": "NOT MET"}
{"sequenceChain": "TLPKRGLFL [human2, TLPKRGLFL]", "assignedClass": "NOT MET"}
{"sequenceChain": "VNPGRSLFL [human5, VNPGRSLFL]", "assignedClass": "MET"}

Turning now to a further record.
IN: Has TGPWRSLWI [human3, TGPWRSLWI] a recorded Binding of peptide-HLA-E complexes to CD94/NKG2A normalized to a theoretical Rmax greater than or equal to 0.05?
OUT: NOT MET
